- Tested on: mtOXPHOS transcripts
- Format: cell-based, mouse
- test_settings: Table 7; C2C12 myotubes, 48 h, composite Z-score
quantity_kind: mito-OXPHOS Z
Write the value as a bare number.

Use the examples below as a reference point.
compound	mito-OXPHOS Z
CN(C)C(=O)Oc1cccc([N+](C)(C)C)c1 [Neostigmine, reference compound]	−3.45
COc1ccc2c(=O)c(CC(=O)O)coc2c1 [anhydrobrazilic acid, reference compound]	1.68
C=C1[C@@H]([C@@]2(C)[C@@H](OC(C)=O)CC(=O)O[C@](C)(COC(C)=O)[C@@H]2C(=O)OC)[C@@H](OC=O)[C@H](OC(=O)[C@H](O)[C@H](C)CC)[C@@]2(C)[C@H](c3ccoc3)CC(=O)[C@]12O [Prieurianin, reference compound]	1.93

Proceeding to the next compound to report its mito-OXPHOS Z.
Ask | Name the recorded mito-OXPHOS Z for COc1cc2c(cc1OC)-c1cc3ccc(OC)c(OC)c3c[n+]1CC2 [Palmatine, reference compound] .
Reply | 1.83

----------
- Tested on: cellular dehydrogenase activity
- test_settings: normalized composite Z-score vs mock-treated (DMSO) wells; Conc 20 μM
Quick reference for MTT among some compounds
// response body must contain only the number

These recorded examples may help you get a feel for the data.
compound	MTT
CC1=CC2C(C(C)C)CCC(C)(O)C2CC1 (stereo not drawn) [cadin-4-en-10-ol]	−0.041
C[C@]12CC[C@H](O)C[C@H]1CC[C@@H]1[C@@H]2[C@H](O)C[C@]2(C)[C@@H](C3=CC(=O)OC3)CC[C@]12O [sarmentogenin]	−0.191
CC(=O)O[C@H]1CC[C@]2(C)[C@H]3C(=O)C=C4[C@@H]5[C@@H](C)[C@H](C)CC[C@]5(C(=O)O)CC[C@@]4(C)[C@]3(C)CC[C@H]2C1(C)C [11-oxoursolic acid acetate]	−1.214
CC1(C)C2CC(=O)[C@]3(C)C(CC[C@@]4(C)[C@H](c5ccoc5)OC(=O)[C@H]5O[C@]543)[C@@]2(C)C(=O)C[C@H]1O (stereo partly drawn)	−1.103

Ask | Identify the measured MTT of CC(=O)C=CC1C(C)(O)CCC2C(C)(C)CCCC21C (stereo not drawn) [8-hydroxy-15,16-bisnor-11-labden-13-one] for cellular dehydrogenase activity.
Reply | −0.248

Ask | And O=C(Oc1cc(O)cc2c1C[C@@H](OC(=O)c1cc(O)c(O)c(O)c1)[C@@H](c1cc(O)c(O)c(O)c1)O2)c1cc(O)c(O)c(O)c1 [epigallocatechin 3,5-digallate] ?
Reply | −1.667

----------
- Tested on: OXPHOS gene expression
- Type: cell-based, mouse
- test_settings: normalized composite Z-score vs mock-treated (DMSO) wells; Conc 20 μM
Binarize GE-HTS at 0.01; below is Yes, at or above is No.

Example entries begin here.
compound	cat
COc1c2c(cc3occ(-c4ccc5c(c4)OCO5)c(=O)c13)OC(C)(C)C=C2 [methyl robustone, reference compound]	No
CC1CC(O)C2OC1CC1C(CC1(C)C)C2C (centres unmarked) [3,7-epoxycaryophyllan-6-ol]	Yes
C[C@@H]1O[C@@H](O[C@H]2[C@H](Oc3cc(O)c4c(=O)cc(-c5ccc(O)cc5)oc4c3)O[C@H](CO)[C@@H](O)[C@@H]2O)[C@H](O)[C@H](O)[C@H]1O [rhoifolin]	Yes

Ask | Could you please tell me whether GE-HTS recorded for CC1=C2C(O)C(=O)OC3CC4C(C)(C)C(=O)C=C[C@]4(C)C(CC1)[C@]23C (some centres unmarked) [merogedunin] is less than 0.01?
Reply | Yes

Ask | Same question for CC1=C(/C=C/C(C)=C/C=C/C(C)=C/C=C/C=C(C)/C=C/C=C(C)/C=C/[C@@]23O[C@]2(C)C[C@@H](O)CC3(C)C)C(C)(C)C[C@H](O)C1 [antheraxanthin] please.
Reply | No

----------
- Tested on: nuOXPHOS transcripts
- Format: cell-based, mouse
- test_settings: composite Z-score vs DMSO; Conc 20 μM
Reported values of nucOX for individual entries
Keep the answer to the number alone.

Here's what some known entries look like.
compound	nucOX
c1ccc2c(c1)CN1CCCC1=N2 [desoxypeganine]	0.621
CN[C@@H]1[C@@H](O[C@H]2O[C@H](CO)[C@@H](N)[C@H](O)[C@H]2O)OC2C[C@@H](N)[C@@H](O[C@H]3[C@H](O)[C@@H](O)[C@H](N)C[C@@H]3N)OC2[C@@H]1O (some centres unmarked) [apramycin]	0.413
Cc1cc(O)c(C=O)c2c1C(=O)Oc1c(C)c(O)c3c(c1O2)C(O)OC3=O (centres unmarked) [norstictic acid]	−0.639

Ask | So what does the record say about nucOX for CO/N=C(\C(=O)N[C@@H]1C(=O)N2C(C(=O)OCOC(=O)C(C)(C)C)=C(/C=C\c3scnc3C)CS[C@H]12)c1csc(N)n1 [cefditorin pivoxil] ?
Reply | 0.100

Ask | What would you report for COCCc1ccc(OCC(O)CNC(C)C)cc1 (centres unmarked) [metoprolol, reference compound] ?
Reply | 0.546

----------
# nucOX values compiled below
- Test system: nuOXPHOS transcripts
- Assay type: cell-based, mouse
- test_settings: composite Z-score vs mock-treated (DMSO) wells; Conc 20 μM
// return just the number, without any unit appended

Here is how some molecules turned out for nucOX.
molecule	nucOX
CC1=CCc2c(cc3oc(C)cc(=O)c3c2O)OC1	−0.907
C=C1C2CC[C@@]3(C)[C@H](c4ccoc4)OC(=O)C[C@]13O[C@H]1CC(=O)C(C)(C)[C@H](C(O)C(=O)OC)[C@@]21C (stereo partly shown) [6-hydroxyangolensic acid methyl ester]	−1.425
CC1(C)C(=O)C=C[C@@]2(C)C1CC(=O)[C@@]1(C)C3=CC(=O)O[C@@H](c4ccoc4)[C@]3(C)CCC12 (stereo partly shown)	−1.586

Ask | Item `C=C(C)[C@H]1COc2cc3oc(=O)ccc3cc2O1` has what recorded nucOX?
Reply | −0.459

----------
// values below are reported Viability
- System: C2C12 myotubes
- test_settings: normalized composite Z-score vs mock-treated (DMSO) wells; Conc 20 μM
// response body must contain only the number

compound	system_name	endpoint_value
CCCCCC1C(=O)CCC1CC(=O)O (stereo not drawn) [dihydrojasmonic acid]	C2C12 myotubes	−1.223
COc1ccc(C(=O)c2ccc(O)cc2)c(O)c1O [2,3,4′-trihydroxy-4-methoxybenzophenone]	C2C12 myotubes	−0.403

Next, consider the following compound.
Ask | Given the entry CC(=O)C[C@H]1CCCCN1 [pelletierine] , report its measured Viability.
Reply | −0.418

----------
- System: cytochrome c
- Format: cell-based, mouse
- test_settings: Conc 20 μM; normalized score vs mock-treated (DMSO) wells
quantity_kind: cyt c (composite Z-score)

Worked cases, cyt c (composite Z-score) given:
molecule	cyt c (composite Z-score)
COc1cc(/C=C/CO)ccc1O	0.296
COc1ccc(-c2c(O)c3c(OC)c4c(cc3oc2=O)OC(C)(C)C=C4)cc1 [robustic acid, reference compound]	−0.459
CC[C@@]1(O)C(=O)OCc2c1cc1n(c2=O)Cc2cc3cc(O)ccc3nc2-1 [10-hydroxycamtothecin]	−2.397
Oc1nc2cc(Cl)c(Cl)cc2nc1O [2,3-dihydroxy-6,7-dichloroquinoxaline]	0.279
CCOc1ccc(C(=O)c2ccc(O)c(O)c2O)cc1 [2,3,4-trihydroxy-4′-ethoxybenzophenone]	0.440

Ask | Lookup: cyt c (composite Z-score) / cytochrome c / `C=CC1=C(C)/C(=C/c2[nH]c(Cc3[nH]c(/C=C4\NC(=O)C(C)=C4C=C)c(C)c3CCC(=O)O)c(CCC(=O)O)c2C)NC1=O`
Reply | 1.004

Ask | Quick one: OC[C@@H](O)[C@@H](OC1O[C@H](CO)[C@@H](O)[C@H](O)[C@H]1O)[C@H](O)[C@@H](O)CO (some centres unmarked) [glucitol-4-gucopyanoside]
Reply | 0.305

Ask | And the next one, `COc1c(O)cc2c(-c3ccccc3)cc(=O)oc2c1OC` ?
Reply | −0.170

Ask | And what about the molecule CCC(N)C(O)c1ccc(O)c(O)c1 (centres unmarked) [ethylnorepinephrine] ?
Reply | −0.439

Ask | What do you have for `C/C=C(/C)C(=O)O[C@H]1Cc2c(ccc3ccc(=O)oc23)OC1(C)C` ?
Reply | −0.478

Ask | And for CC(C)c1ccc2c(c1)CCC1[C@](C)(CN)CCC[C@]21C.O=S(=O)(O)O (some centres unmarked) [18-aminoabieta-8,11,13-triene sulfate] ?
Reply | 0.507

----------
- Test system: nuOXPHOS transcripts
- Type: cell-based, mouse
- test_settings: composite Z-score vs mock-treated (DMSO) wells; Conc 20 μM
Recorded nucOX for the following compounds
Returns: the value as a bare number; no unit string appended.

Reference set, count: 5
compound	quantity_kind	endpoint_value
CC(C)c1c(O)ccc2c1CC[C@H]1[C@@](C)(CO)CCC[C@]21C [19-hydroxytotarol]	nucOX	−0.128
C=C1CCC2C(CC2(C)C)C(=C)CCC1=NO (stereo not drawn) [5-hydroxyiminoisocaryophyllene]	nucOX	−0.273
CC1(C)C(=O)C=C[C@]2(C)[C@H]3CC[C@@]4(C)[C@H](c5ccoc5)OC(=O)[C@H]5O[C@]54[C@]3(C)[C@H](O)C[C@@H]12	nucOX	−0.244
CC1(C)CC[C@]2(C(=O)O)CC[C@]3(C)C(=CC[C@@H]4[C@@]5(C)CC[C@H](O)C(C)(C)[C@@H]5CC[C@]43C)[C@@H]2C1	nucOX	−1.408
CCOC(=O)c1c(C)cc(O)c(C=O)c1O	nucOX	0.387

Now for a further compound.
Ask | For the compound COc1ccc([C@@H](C)C(=O)c2ccc(O)cc2O)cc1 [(R)-angolensin] , what nucOX is on record?
Reply | 0.703
